Listing: HepG2 IC50(nM), FasL antigen-induced cell apoptosis of selected binders
Target: T1, hFc-hFasL (fusion protein of human Fc fragment and human FasL extracellular region) (human, UniProt P48023 134-281)
T1 sequence: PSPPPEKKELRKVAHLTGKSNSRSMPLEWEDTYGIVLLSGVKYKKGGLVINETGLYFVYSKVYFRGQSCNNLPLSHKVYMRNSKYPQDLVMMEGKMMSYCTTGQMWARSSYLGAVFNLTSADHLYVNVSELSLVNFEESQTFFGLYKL
Test: cell-based or functional assay
Respond with the bare value in nM.

Example entries and their recorded answers appear below.
| BINDER | VALUE_MEASURED |
| --- | --- |
| humFL-M54-2 (antibody, human IgG4, V domains shown) VH: QVQLVQSGAEVKKPGSSVKVSCKASGYTFTRFDISWVRQAPGQGLEWMGWIFPGDGSSQYNENFKGRATLTTDKSTSTAYMELSSLRSEDTAVYFCARSLISTAMFDHWGQGTLVTVSS VL: EIVMTQSPATLSVSPGERATLSCRASKSVSTSDFSYIHWYQQKPGQPPRLLIFLASHLESGIPARFSGSGSGTEFTLTISSLQSEDFAVYYCQHSRELPRTFGQGTKVEIK | 0.031 |
| humFL-M54-8 (antibody, human IgG4, V domains shown) VH: QVQLVQSGAEVKKPGSSVKVSCKASGYTFTRFDISWVRQAPGQGLEWMGWIFPGDGSSQYNENFKGRATITTDKSTSTAYMELSSLRSEDTAVYFCARSLISTAMFDHWGQGTLVTVSS VL: EIVMTQSPATLSVSPGERATLSCRASKSVSTSDFSYIHWYQQKPGQPPRLLIYLASHLESGIPARFSGSGSGTEFTLTISSLQSEDFAVYYCQHSRELPRTFGQGTKVEIK | 0.025 |

Please find the next binder below.
Form: binder = humFL-M54-15 (antibody, human IgG4, V domains shown) VH: QVQLVQSGAEVKKPGSSVKVSCKASGYTFTRFDISWVRQAPGQGLEWMGWIFPGDGSSQYNENFKGRVTITADKSTSTAYMELSSLRSEDTAVYFCARSLISTAMFDHWGQGTLVTVSS VL: EIVMTQSPATLSVSPGERATLSCRASKSVSTSDFSYIHWYQQKPGQAPRLLIYLASHLESGIPARFSGSGSGTEFTLTISSLQSEDFAVYYCQHSRELPRTFGQGTKVEIK ; HepG2 IC50(nM), FasL antigen-induced cell apoptosis = 0.03
